These measurements were taken from paper PMC6102311.

For each record, write down the corresponding viability at 32 nmol/ml.
method-description: Viability of Raji cells in the EBV-EA activation assay
Assay type: cell-based
condition-description: human, Raji cells; concentration 1000 mol ratio to TPA (32 pmol/ml); value in parentheses; read-out: viability percentage of Raji cells
State just the number; it will be interpreted in %.

Quote viability at 32 nmol/ml reported for C=CC1(C)CCC(C(C)(C)O)CC1C(=C)C (stereo not drawn) please.
70

Identify measured viability at 32 nmol/ml corresponding to C[C@@H]1CCC=C2CC[C@@H](C(C)(C)O)C[C@]21C (relative stereo)
60

Quickly give me recorded viability at 32 nmol/ml for `C=C1CCC[C@]2(C)CC[C@@H](C(C)(C)O)C[C@@H]12`
60
